# APPLIED CONDITIONS: rat, in vivo, iv, 2 mg/kg
Bridge positions count the residues as written; N and C are the ends. Square brackets hold non-standard residues; d marks the D form. Peptide text beside a SMILES is read from it. * marks the point of attachment. Piperazin2one(3S-Bu,6R-CO) = CCCC[C@@H]1NC[C@H](C(=O)*)NC1=O; X1 = N=C(N)NCCC[C@H]1C(=O)N[C@@H](C(N)=O)CN1*; Nle = CCCC[C@H](N)C(=O)O; Orn = NCCC[C@H](N)C(=O)O
PROPERTY MEASURED: half-life (min)
Numbers only, in min.

Qu. For the compound CCCC[C@@H]1NC[C@H](C(=O)N[C@H]2CSSC[C@@H](C(=O)N[C@@H](Cc3ccc(O)cc3)C(=O)N3C[C@H](C(N)=O)NC(=O)[C@@H]3CCCNC(=N)N)NC(=O)[C@H](CO)NC(=O)[C@H]([C@@H](C)CC)NC(=O)[C@H](CCCN)NC(=O)[C@H](CC(=O)O)NC(=O)[C@H](CCCC)NC(=O)[C@H](CCCNC(=N)N)NC(=O)CNC(=O)CNC(=O)[C@H](Cc3ccccc3)NC(=O)[C@H](Cc3c[nH]cn3)NC2=O)NC1=O [1-55] ({Piperazin2one(3S-Bu,6R-CO)}-CHFGGR[Nle]D[Orn]ISCY-X1; disulfide 1-12) , give its reported half-life.
Ans. 18
